Each entry below lists one item and its recorded melting point value.

See these solved cases before continuing.
1) Cc1cccc(C2CC2)c1Oc1nnc(Cl)cc1OC(=O)n1c(C)ccc1C [Compound No. 3630]	208 to 210 °C
2) C[Si](C)(C)c1ccc(Oc2nnc(Cl)cc2O)cc1	197 to 199 °C
3) Cc1cc(Oc2nnc(Cl)cc2O)cc(C(C)C)c1 [Compound No. 1000]	204 to 206 °C
4) Oc1cc(Cl)nnc1Oc1ccccc1Cl [Compound No. 125]	208 to 212 °C
5) CC(C)c1cccc(F)c1Oc1nnc(Cl)cc1O [Compound No. 717]	215 to 220 °C

Kindly indicate its recorded melting point. Item: CC(C)c1ccc(C2CC2)c(Oc2nnc(Cl)cc2O)c1 [Compound No. 664]
211 to 212 °C

Kindly indicate its recorded melting point. Item: CN(C)c1ccc(C=O)c(Oc2nnc(Cl)cc2O)c1 [Compound No. 692]
124 to 127 °C

Kindly indicate its recorded melting point. Item: COc1cccc(F)c1Oc1nnc(Cl)cc1O [Compound No. 732]
190 to 194 °C
